System: S. aureus MW2
Experiment: Minimal inhibitory concentration (MIC) assay, broth microdilution
Format: cell-based, Staphylococcus aureus
Conditions: S. aureus MW2; broth microdilution, TSB, 1 × 10^6 CFU/ml, 37°C 18 h, OD600, duplicate
Entries and their MIC SA values follow.
experimental-readout: MIC SA

In [3]: df
Out[3]:
                     substance  experimental_readout  meas_value
0  H-GLFSVIKKVASVI-NH2 [CIT-2]                MIC SA  > 32 µg/mL
1  H-GLFKVIKKVAKVI-NH2 [CIT-4]                MIC SA  > 32 µg/mL
2  H-GLFKVIKKVASVI-NH2 [CIT-3]                MIC SA  > 32 µg/mL
3  H-GLFDVIKKVASVI-NH2 [CIT-1]                MIC SA  > 32 µg/mL
4  H-GLFSVIKKLLSVI-NH2 [CIT-6]                MIC SA     2 µg/mL
5  H-GLFKVIKKLLSVI-NH2 [CIT-7]                MIC SA     4 µg/mL
6  H-GLFDVIKKLLSVI-NH2 [CIT-5]                MIC SA  > 32 µg/mL
7  H-GLFKVIKKLLKVI-NH2 [CIT-8]                MIC SA     4 µg/mL
